Recorded EC50 by entry
- tested-system: human calcium-sensing receptor (CaSR) (Homo sapiens, UniProt P41180)
- Construct: expressed in transfected cells; host or cells: HEK 293T cells, transiently transfected (lipofectamine 2000); in some cases HEK293 cells stably transfected
- Sequence (P41180 20-1078): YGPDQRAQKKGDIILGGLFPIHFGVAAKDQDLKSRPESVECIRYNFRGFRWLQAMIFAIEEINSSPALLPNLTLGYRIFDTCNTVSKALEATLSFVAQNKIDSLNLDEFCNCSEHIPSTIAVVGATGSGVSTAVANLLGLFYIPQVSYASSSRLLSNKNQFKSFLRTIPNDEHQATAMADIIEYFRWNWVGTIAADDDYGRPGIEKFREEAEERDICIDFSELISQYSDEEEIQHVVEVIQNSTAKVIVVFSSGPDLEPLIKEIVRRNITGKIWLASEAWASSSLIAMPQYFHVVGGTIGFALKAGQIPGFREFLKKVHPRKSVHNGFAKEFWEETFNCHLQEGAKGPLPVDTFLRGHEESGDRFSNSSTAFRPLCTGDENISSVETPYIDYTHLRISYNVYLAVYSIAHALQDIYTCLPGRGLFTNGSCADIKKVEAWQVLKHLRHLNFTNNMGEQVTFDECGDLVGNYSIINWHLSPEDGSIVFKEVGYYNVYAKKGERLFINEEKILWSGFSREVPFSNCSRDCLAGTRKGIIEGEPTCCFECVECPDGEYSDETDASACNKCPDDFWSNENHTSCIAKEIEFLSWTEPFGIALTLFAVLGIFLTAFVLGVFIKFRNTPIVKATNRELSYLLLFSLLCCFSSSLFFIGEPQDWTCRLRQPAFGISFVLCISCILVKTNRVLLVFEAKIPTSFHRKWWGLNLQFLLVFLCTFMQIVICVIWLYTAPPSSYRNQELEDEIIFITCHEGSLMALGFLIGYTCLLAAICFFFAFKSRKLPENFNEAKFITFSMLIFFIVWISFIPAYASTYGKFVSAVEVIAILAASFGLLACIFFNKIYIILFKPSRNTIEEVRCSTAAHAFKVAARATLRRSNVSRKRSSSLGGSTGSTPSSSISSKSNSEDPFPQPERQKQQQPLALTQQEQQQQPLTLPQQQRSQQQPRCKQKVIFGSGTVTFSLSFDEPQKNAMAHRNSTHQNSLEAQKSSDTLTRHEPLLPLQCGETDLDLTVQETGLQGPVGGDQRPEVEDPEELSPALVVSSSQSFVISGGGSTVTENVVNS
- assay-summary: In vitro cell assay in HEK-293 expressing the human calcium-sensing receptor (IP1 production)
- Assay type: cell-based
- stated-conditions: Table 5; IP1 production in HEK293 cells expressing human CaSR, eight concentrations in duplicate; read-out: EC50 in CaSR in vitro assay
Record the value in µM, omitting the unit from your answer.

CC(=O)N[C@H](CS)C(=O)N[C@H](CCCNC(=N)N)C(=O)N[C@H](CCCNC(=N)N)C(=O)N[C@H](CCCNC(=N)N)C(=O)N[C@H](CCCNC(=N)N)C(=O)N[C@H](CCCNC(=N)N)C(=O)N[C@H](CCCNC(=N)N)C(N)=O = 0.5

**Q:** What EC50 value was documented for this molecule, CC(=O)N[C@H](CS)C(=O)N[C@H](C)C(=O)N[C@H](CCCNC(=N)N)C(=O)N[C@H](CCCNC(=N)N)C(=O)N[C@H](CCCNC(=N)N)C(=O)N[C@H](C)C(=O)N[C@H](CCCNC(=N)N)C(=O)O ?
**A:** 31

---

- Tested on: plasma PTH
- assay-summary: In vivo PTH lowering after IV bolus in isoflurane-anesthetized normal Sprague Dawley rats
- Set-up: species or system rat
- stated-conditions: Table 6; normal rats, AUC 1-4 h
Square brackets hold non-standard residues; d marks the D form. Peptide text beside a SMILES is read from it.
Recorded 0.5 mg/kg IV bolus % PTH AUC of saline control by entry
Record the value in %, omitting the unit from your answer.

CC(=O)N[C@H](CS)C(=O)N[C@H](CO)C(=O)N[C@H](CCCNC(=N)N)C(=O)N[C@H](CCCNC(=N)N)C(=O)N[C@H](CCCNC(=N)N)C(=O)N[C@H](C)C(=O)N[C@H](CCCNC(=N)N)C(N)=O [SEQ ID NO: 102, Ac-csrrrar-NH2] (Ac-[dC][dS][dR][dR][dR][dA][dR]-NH2) = 13
CC(=O)N[C@H](CS)C(=O)N[C@H](CCCNC(=N)N)C(=O)N[C@H](CCCNC(=N)N)C(=O)N[C@H](CC(C)C)C(=O)N[C@H](CCCNC(=N)N)C(=O)N[C@H](C)C(=O)N[C@H](CCCNC(=N)N)C(N)=O [SEQ ID NO: 114, Ac-crrlrar-NH2] (Ac-[dC][dR][dR][dL][dR][dA][dR]-NH2) = 1

Pending compound:
**Q:** What 0.5 mg/kg IV bolus % PTH AUC of saline control value was documented for this compound, CC(=O)N[C@H](CS)C(=O)N[C@H](C)C(=O)N[C@H](CCCNC(=N)N)C(=O)N[C@H](CCCNC(=N)N)C(=O)N[C@H](CCCNC(=N)N)C(=O)N[C@@H](C(=O)N[C@H](CCCNC(=N)N)C(N)=O)C(C)C [SEQ ID NO: 87, Ac-carrrvr-NH2] (Ac-[dC][dA][dR][dR][dR][dV][dR]-NH2) ?
**A:** 79

---

Recorded Histamine in vitro Fold change of non-treated at 10 uM by entry
- Test system: rat peritoneal mast cells
- assay-summary: In vitro histamine induction in rat peritoneal mast cells
- Type: cell-based
Square brackets hold non-standard residues; d marks the D form. Peptide text beside a SMILES is read from it.
Record the value in fold, omitting the unit from your answer.

Observe how each entry below is paired with its result.
CC(=O)N[C@H](CS)C(=O)N[C@H](CCCNC(=N)N)C(=O)N[C@H](CCCNC(=N)N)C(=O)N[C@H](CO)C(=O)N[C@H](CCCNC(=N)N)C(=O)N[C@H](C)C(=O)N[C@H](CCCNC(=N)N)C(N)=O [SEQ ID NO: 111, Ac-crrsrar-NH2] (Ac-[dC][dR][dR][dS][dR][dA][dR]-NH2) = 2.0
CC(=O)N[C@H](CS)C(=O)N[C@H](C)C(=O)N[C@H](CCCNC(=N)N)C(=O)N[C@H](CCCNC(=N)N)C(=O)N[C@H](CCCNC(=N)N)C(=O)N[C@H](CCC(=O)O)C(=O)N[C@H](CCCNC(=N)N)C(N)=O [SEQ ID NO: 68, Ac-carrrer-NH2] (Ac-[dC][dA][dR][dR][dR][dE][dR]-NH2) = 1.3

**Q:** For the record CC(=O)N[C@H](CS)C(=O)N[C@H](Cc1c[nH]cn1)C(=O)N[C@H](CCCNC(=N)N)C(=O)N[C@H](CCCNC(=N)N)C(=O)N[C@H](CCCNC(=N)N)C(=O)N[C@H](C)C(=O)N[C@H](CCCNC(=N)N)C(N)=O [SEQ ID NO: 103, Ac-chrrrar-NH2] (Ac-[dC][dH][dR][dR][dR][dA][dR]-NH2) , what value of Histamine in vitro Fold change of non-treated at 10 uM is listed for rat peritoneal mast cells?
**A:** 1.6
